Experiment: NCI Yeast Anticancer Drug Screen. Data for the bub3 strain (AID 167)
Details: S. cerevisiae bub3 mutant strain, at 50.0 µM, active compounds read high
The panel holds about 79,000 compounds, 15% with a hit somewhere; the sample as a whole holds those more often.
Please respond with reported growth inhibition for every item in the list.
One number for each entry, in %.

The cases that follow already have their growth inhibition on record.
* O=C(CC(O)(C(F)(F)Cl)C(F)(F)Cl)c1cccc([N+](=O)[O-])c1 | 61
* CCCCCCCCCCCCc1c2ccccc2cc2ccccc12 | 25.1
* Clc1ccc(NC2=NCCN=C(Nc3ccc(Cl)c(Cl)c3)SS2)cc1Cl | -28.1

// batch mode: one growth inhibition value per listed entry
1. N#CCCC(=O)c1ccc[nH]1
2. CCC1(CC)C(=O)N(C(=O)c2ccccc2)N(C(=O)c2ccc(Cl)cc2)C1=O
3. COc1cc(OC)cc(N(C)Cc2cnc3nc(N)nc(N)c3c2C)c1

1. 1.3
2. 46.8
3. 12.3

====

Please respond with reported growth inhibition for every item in the list.
Assay: NCI Yeast Anticancer Drug Screen. Data for the bub3 strain (AID 167)
Conditions: S. cerevisiae bub3 mutant strain, at 50.0 µM, active compounds read high
The panel holds about 79,000 compounds, 15% with a hit somewhere; the sample as a whole holds those more often. Where a SMILES comes first, the peptide text is derived from it. The star is where a group is joined. Trt = c1ccc(C(c2ccccc2)(c2ccccc2)*)cc1
Give bare numbers, in %.

The cases that follow already have their growth inhibition on record.
- CC(c1ccccc1)C1OCC(CCCCO)O1 (stereo unspecified): -15.1
- CN1CCN(Cc2cc(C(C)(C)C)cc(-c3ccccc3)c2O)CC1: 8
- CC(C)(C)OC(=O)NO: 5.05
- CCCCONC(N)=O: -5.15

// batch mode: one growth inhibition value per listed entry
1. COC(=O)C(NC(=O)C(N)CSC(c1ccccc1)(c1ccccc1)c1ccccc1)C(C)C (stereo unspecified) (H-Cys(Trt)-Val-OMe; configuration not given here)
2. [N-]=[N+]=Nc1ccccc1-c1ccc([N+](=O)[O-])cc1
3. N#Cc1cccc(N2C(=O)C3C4C=CC(C3C2=O)C2C(=O)N(c3cccc(C#N)c3)C(=O)C42)c1 (stereo unspecified)
4. CC1(C)CCCc2c(-c3ccccc3)cc3c4ccccc4cc[n+]3c21
5. Cc1ccc(/C(O)=C/c2nc3c(nc2NC24CC5CC(CC(C5)C2)C4)c(=O)oc2ccccc23)cc1

[97.6, 1.2, -0.35, -5, 6.1]

// batch mode: one growth inhibition value per listed entry
1. COC(=O)[C@H]1C=C[C@@H](C)n2c(=O)c3ccccc3c(=O)n21
2. CCCOc1cncc(C)n1

[-19.1, 13.6]

====

Experiment: NCI Yeast Anticancer Drug Screen. Data for the mec2-1 strain (AID 157)
Details: S. cerevisiae mec2-1 strain, at 50.0 µM, active compounds read high
Compounds without any hit were thinned out: in the full panel of roughly 79,000, 15% have a hit.
attribute_measured: growth inhibition (%)
Give bare numbers, in %.

The cases that follow already have their growth inhibition on record.
• Cc1ccc(SCCCN(C)C)cc1 = 17.6
• C[N+](C)(C)CC(=O)N/N=C(/Cc1nc2c3c(ccc2[nH]c1=O)C(=O)c1ccccc1C3=O)C(=O)Nc1ccc(Cl)c(Cl)c1 = -6.8
• COC(=O)/C(C=Nc1ccccc1)=C(/C)O = 5.1
• Cc1nc(NS(=O)(=O)c2ccc(N)cc2)nc(C)c1Br = -9.55
• CCOC(=O)/C(C#N)=C/c1ccc(-c2cc(C(F)(F)F)cc(C(F)(F)F)c2)o1 = -7
• CC(C)(C)c1ccc(C(C)(C)C)c(=O)[nH]1 = -19.1
• OC1(CSc2ccccc2)CCCCC1 = 22.2
• O=C1/C(=C/c2ccc(Cl)cc2)CCC1CNc1ccc(Cl)cc1 (stereo not given) = 0.25
• CN(C=O)c1cccc(C(=O)O)c1 = -1.2
• O=c1c(Cl)cc(Cl)cn1S(=O)(=O)c1ccc([N+](=O)[O-])cc1 = 95.3

// batch mode: one growth inhibition value per listed entry
1. Clc1ccc(CSc2nnc(SCc3ccc(Cl)c(Cl)c3)c3[nH]cnc23)cc1Cl
2. CC1=CC(C)(C)NC(=S)N1c1ccc(O)cc1
3. CC(C)C1=CC(=O)C(C)(C2=NC(C)(C)CO2)c2ccccc21 (stereo not given)
4. CN1C(=O)CC2C(=O)N(Cc3ccccc3)C(=O)C2C1=O (stereo not given)
5. CC(=O)NCCCCCC(=O)O
6. Cc1cc(C(=O)NN)no1
7. O=C(NCc1ccc2ccc3cccnc3c2n1)c1ccc[n+](Cc2ccccc2)c1

[6.15, -14.8, -9.35, -4, 2.45, -4.4, -11.6]

====

Experiment: NCI Yeast Anticancer Drug Screen. Data for the cln2 rad14 strain (AID 165);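 also: 0% = growth equal to vehicle treated cultures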
Conditions: S. cerevisiae cln2 rad14 strain, at 50.0 µM, active compounds read high
Protocol: Growth inhibition of yeast strains with defined genetic alterations is measured as a screen for potential anti-cancer activity. Selected strains with alterations in DNA damage repair or cell cycle control were exposed to compounds and growth inhibition was measured relative to vehicle treated controls. The strain used in this assay is cln2 rad14
This is part of a sample that, as a whole, favours compounds with a hit. Of some 79,000 tested, about 15% had one in any assay.
attribute_measured: growth inhibition (%)
Answers are plain numbers, in %.

• CCOC(=O)/C(C#N)=C(\C)c1ccc(O)c(OC)c1 = 24.1

// batch mode: one growth inhibition value per listed entry
1. COC(=O)C1=NNC(c2ccc(C)cc2)C1 (stereo unspecified)
2. O=C(C[n+]1ccccc1Cl)c1ccc(I)cc1
3. O=S(=O)(c1ccccc1)N1C[C@@H]2[C@H](C1)[C@H]1C=C[C@@H]2C1
4. CC(=O)/C(=C\c1ccccc1)C(=O)CCN(C)C
5. CONC(CC(=O)c1ccccc1)c1ccccc1 (stereo unspecified)

1. -0.3
2. 9.05
3. -4.8
4. 12.2
5. 2.7

====

Assay: NCI Yeast Anticancer Drug Screen. Data for the mlh1 rad18 strain (AID 175)
Conditions: S. cerevisiae mlh1 rad18 strain growth inhibition; at 50.0 µM; active compounds read high
Compounds without any hit were thinned out: in the full panel of roughly 79,000, 15% have a hit.
Please respond with reported growth inhibition for every item in the list.
One number for each entry, in %.

• O=C(O)COc1ccc2ccccc2c1 (tested in a mixture with another compound) = -5.65
• CCOc1ccc(C(=O)C=O)cc1 = 27.2
• O=C(Nc1ccccc1[N+](=O)[O-])OCc1ccccc1 = 8.2

// batch mode: one growth inhibition value per listed entry
1. CCCCc1ccc2[n+](c1)C(C(=O)OCC)=PC2 (stereo unspecified)
2. Cc1cc(Cl)c(=O)n(-c2ccc(Cl)cc2)n1
3. CC(=O)CC(=O)NCc1ccccc1
4. O=C(O)c1[nH]c(=O)[nH]c(=O)c1C(=O)O
5. O=C(c1ccccc1)C(N=Nc1ccccc1)(c1ccccc1)c1ccccc1
6. c1cnc2cccnc2c1

-11.9
44.9
5.15
-15
21.6
-9.9

// batch mode: one growth inhibition value per listed entry
1. O=C1NC(=O)c2ccc(S)c3cccc1c23
2. CCCCCCCCCSCCOC(=S)N(C)C
3. Cc1cc2c(=O)cc(-c3ccncc3)oc2c(C(N)=O)c1C
4. NC(CO)C(O)C(O)C(O)CO (stereo unspecified)
5. CCOC(=O)Nc1cc(Cl)c2ncn(C(=O)OCC)c2n1

-8.05
34.6
22.5
-0.45
17.9

// batch mode: one growth inhibition value per listed entry
1. Cn1c(=O)c2c(nc(C3CC3)n2C)n(C)c1=O
2. O=C(O)C1CCCCC1C(=O)NCc1ccco1 (stereo unspecified)
3. CC(=O)N1C(=O)C(=O)c2cc(Cl)ccc21
4. CC(C)c1cccc(C(C)C)c1NC(=O)C(=O)C1SC(=S)NC1=O (stereo unspecified)
5. CC(=O)OCC1OC(N2C(S)=C(C#N)C(c3ccco3)C(C(C)=O)=C2c2ccccc2)C(OC(C)=O)C(OC(C)=O)C1OC(C)=O (stereo unspecified)
6. CCOC(=O)C(CCC(C)(C)SCc1ccccc1)(NC(C)=O)C(=O)OCC
7. CC1(C)Oc2ccc(NC(=O)CCC(N)C(=O)O)cc2O1 (stereo unspecified)
8. O=c1[nH]c2ccc(Br)cc2cc1Br

1. 12.1
2. 0.05
3. -1.6
4. -29.6
5. -6.15
6. 5.6
7. -18.1
8. 20.8

// batch mode: one growth inhibition value per listed entry
1. Cc1nccc2scc(S(=O)(=O)O)c12
2. Cc1ccc(S(=O)(=O)OC2CCC(C(C)(C)C)C(Cl)C2)cc1 (stereo unspecified)
3. CCC/C=C1\CCC(CN(C)C)C1=O (stereo unspecified)
4. O=C1C(=O)c2ccccc2C(O)=C1Cc1ccccc1

1: 22.7; 2: -6.75; 3: 15.1; 4: 1.85

====

Assay: NCI Yeast Anticancer Drug Screen. Data for the rad50 strain (AID 155);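 also: 0% = growth of vehicle-only cultures of the same strain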
Conditions: S. cerevisiae rad50 strain growth inhibition; at 50.0 µM; active compounds read high
About 79,000 compounds went through this panel and 15% of them were active in at least one assay; those are over-represented in the sample as a whole. Where a SMILES comes first, the peptide text is derived from it. The star is where a group is joined. Bz = O=C(c1ccccc1)*; Bn = c1ccc(C*)cc1; βAla = NCCC(=O)O
attribute_measured: growth inhibition (%)
Numbers only, in %.

The cases that follow already have their growth inhibition on record.
- NNC(=O)c1ccc(Cl)cc1Nc1ccccc1: 24.9
- Nc1nc(N)c(N=Nc2ccc(Cl)cc2)c(=O)[nH]1: 19.9
- Cc1cc2c(c(C)c1O)C(C)(C)CN2C(=O)C(C)(C)C: -12.2

// batch mode: one growth inhibition value per listed entry
1. COC(=O)C(CSCc1ccccc1)NC(=O)C(CSCc1ccccc1)NC(=O)CCNC(=O)c1ccccc1 (stereo not given) ({Bz-βAla}-Cys(Bn)-Cys(Bn)-OMe; configuration not given here)
2. OCC(O)C(O)C(O)c1nn(-c2ccc(Cl)cc2)c2nc3cc(Cl)c(Cl)cc3nc12 (stereo not given)
3. CN(C)C=Nc1ccc2[nH]c3ccccc3c2c1
4. COC(=O)[C@]1(C)CCC[C@]2(C)c3cc(Br)c(C(C)C)cc3CC[C@H]12

13.9
1.85
-25.4
-18.6

// batch mode: one growth inhibition value per listed entry
1. COc1ccc(C(CC(=O)O)CC(=O)O)cc1[N+](=O)[O-]
2. S=c1nc(-c2cccnc2)[nH][nH]1

0.75
1.6

Could you please provide reported growth inhibition for CC1=C(C(=O)NC(C)(C)C)CC(C(=O)NC(C)(C)C)C(C)N1 (stereo not given) ? Thanks!
-21.4

Reference source for all entries: PubChem BioAssay (NCI)
